# tested-on: CDK2/Cyclin E1 full length (Homo sapiens (Human))
# assay-procedure: CDK2/Cyclin E1 Full Length ADP-Glo Kinase Assay
# Assay type: biochemical
# condition-info: 20 uM ATP, read-out: CDK2/ CyclinE1 IC50
pIC50: −log10 of the molar value.
Quick list: pIC50 per entry.

>>> value("CS(=O)(=O)N1CCC(Nc2ncc3cccc(N4CCCC5(CCOC5)C4)c3n2)CC1 (centres unmarked) [Example 7]")
"> 6.70"

Exam item: Observed pIC50 on CDK2/Cyclin E1 full length (Homo sapiens (Human)) for CC(=O)N1CCC2(CCN(c3cc(C(F)F)cc4cnc(Nc5ccc(N6CCN(C)CC6)cc5)nc34)C2)C1 (centres unmarked) [Example 51] , please.
Marked response: 5.70 to 6.30

Exam item: Observed pIC50 on CDK2/Cyclin E1 full length (Homo sapiens (Human)) for CS(=O)(=O)N1CCC(Nc2ncc3cccc(N4CCC5(CCOCC5)C4)c3n2)CC1 [Example 26] , please.
Marked response: > 6.70

Exam item: Observed pIC50 on CDK2/Cyclin E1 full length (Homo sapiens (Human)) for CS(=O)(=O)N1CCC(Nc2ncc3cc(C(F)(F)F)cc(N4CC5(CNCC5(F)F)C4)c3n2)CC1 [Example 116] , please.
Marked response: > 6.70

Exam item: Observed pIC50 on CDK2/Cyclin E1 full length (Homo sapiens (Human)) for CS(=O)(=O)N1CCC(Nc2ncc3cccc(C4CC5(CNCC5(F)F)C4)c3n2)CC1 (centres unmarked) [Example 122] , please.
Marked response: > 6.70

Exam item: Observed pIC50 on CDK2/Cyclin E1 full length (Homo sapiens (Human)) for CS(=O)(=O)N1CCC(Nc2ncc3cccc(N4CCN(C5COC5)CC4)c3n2)CC1 [Example 11] , please.
Marked response: 5.70 to 6.30

Exam item: Observed pIC50 on CDK2/Cyclin E1 full length (Homo sapiens (Human)) for CS(=O)(=O)N1CCC(Nc2ncc3cccc(N4CCC5(C4)CS(=O)(=O)C5)c3n2)CC1 [Example 4] , please.
Marked response: > 6.70

Exam item: Observed pIC50 on CDK2/Cyclin E1 full length (Homo sapiens (Human)) for CS(=O)(=O)N1CCC(Nc2ncc3cccc(N4CCC5(C4)CC(F)(F)C5)c3n2)CC1 [Example 3] , please.
Marked response: > 6.70

###

# System: OVCAR-3 cells
# assay-procedure: Cell Growth Inhibition, OVCAR-3 (CellTiterGlo, 6 days)
# Type: cell-based
# condition-info: Homo sapiens, 144 h; OVCAR-3, 6-day treatment, CellTiterGlo 2.0
pIC50: −log10 of the molar value.
observation-type: pIC50

Answered examples (5):
>>> value("CN1CC2(CCN(c3cccc4cnc(NC5CCN(S(C)(=O)=O)CC5)nc34)C2)C1 [Example 24]")
"5.70 to 6.30"
>>> value("CS(=O)(=O)N1CCC(Nc2ncc3cccc(C4CC(CO)(C(F)F)C4)c3n2)CC1 (centres unmarked) [Example 121]")
"5.70 to 6.30"
>>> value("CCN1CC2(C1)CN(c1ccc(Nc3ncc4cccc(N5CC6(CC(O)C6)C5)c4n3)nc1)C2 [Example 48]")
"< 5.70"
>>> value("COCCN1CC2(CCN(c3cccc4cnc(Nc5ccc(N6CC7(COC7)C6)cn5)nc34)C2)C1 [Example 43]")
"< 5.70"
>>> value("CN1CC2(CC(c3cc(C(F)F)cc4cnc(NC5CCN(S(C)(=O)=O)CC5)nc34)C2)C1 [Example 67]")
"> 6.70"

Exam item: Observed pIC50 on OVCAR-3 cells for CC(=O)N1CCC2(CCC(c3cccc4cnc(NC5CCN(S(C)(=O)=O)CC5)nc34)C2)C1 (centres unmarked) [Example 35] , please.
Marked response: < 5.70

Exam item: Observed pIC50 on OVCAR-3 cells for Cn1ncc2cc(Nc3ncc4cc(C(F)F)cc(N5CC6(CCNC6)C5)c4n3)ccc21 [Example 75] , please.
Marked response: 5.70 to 6.30

Exam item: Observed pIC50 on OVCAR-3 cells for CS(=O)(=O)N1CCC(Nc2ncc3cc(C(F)F)cc(C4CC5(CCNC5)C4)c3n2)CC1 (centres unmarked) [Example 70] , please.
Marked response: 6.30 to 6.70
